Biological target: T1, AF9 (UniProt P42568 1-568)
T1 construct: AF9 (MLLT3), a YEATS domain-containing protein
T1 sequence (looked up): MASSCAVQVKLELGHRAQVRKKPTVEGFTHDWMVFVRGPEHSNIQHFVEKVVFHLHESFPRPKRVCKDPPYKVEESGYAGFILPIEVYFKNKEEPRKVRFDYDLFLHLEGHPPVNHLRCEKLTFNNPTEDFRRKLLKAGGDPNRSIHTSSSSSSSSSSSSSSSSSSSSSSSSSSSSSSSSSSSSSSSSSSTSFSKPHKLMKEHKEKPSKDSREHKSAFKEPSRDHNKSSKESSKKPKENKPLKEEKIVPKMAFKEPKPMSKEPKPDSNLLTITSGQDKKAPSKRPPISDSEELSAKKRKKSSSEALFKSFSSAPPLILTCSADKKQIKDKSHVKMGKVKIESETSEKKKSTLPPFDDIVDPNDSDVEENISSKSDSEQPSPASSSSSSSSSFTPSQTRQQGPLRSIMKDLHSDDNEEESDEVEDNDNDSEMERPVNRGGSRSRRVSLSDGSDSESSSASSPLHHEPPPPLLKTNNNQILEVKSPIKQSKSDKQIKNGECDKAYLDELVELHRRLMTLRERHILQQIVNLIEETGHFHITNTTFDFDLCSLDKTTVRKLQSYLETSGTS
Assay: ITC; MicroCal PEAQ ITC, 15°C; protein at 100 μM dropped into the 1000 μM peptide, 19 drops; one set of binding sites model
Details: both partners purified
property.label: Kd (µM)

[[record]]
binder = "ARTKQTARKSTGGKAPR (peptide, UniProt P68431 2-18, looked up, β-hydroxybutyryl-lysine at K9, histone H3, residues 1-17; The text calls the ITC peptides 'histone H3K14 (1–17) peptides', the legend 'H31-17 peptides'; also called H3K9bhb peptide; source: synthetic peptide (Beijing SciLight Biotechnology, HPLC purified)) [β-hydroxybutyryl histone H3 1-17 peptide (H3K9bhb)]"
property_label = "Kd"
recorded_result = 11

